assayTarget: Human DNA polymerase ɛ (Homo sapiens, UniProt Q07864)
Sequence (Q07864 whole entry): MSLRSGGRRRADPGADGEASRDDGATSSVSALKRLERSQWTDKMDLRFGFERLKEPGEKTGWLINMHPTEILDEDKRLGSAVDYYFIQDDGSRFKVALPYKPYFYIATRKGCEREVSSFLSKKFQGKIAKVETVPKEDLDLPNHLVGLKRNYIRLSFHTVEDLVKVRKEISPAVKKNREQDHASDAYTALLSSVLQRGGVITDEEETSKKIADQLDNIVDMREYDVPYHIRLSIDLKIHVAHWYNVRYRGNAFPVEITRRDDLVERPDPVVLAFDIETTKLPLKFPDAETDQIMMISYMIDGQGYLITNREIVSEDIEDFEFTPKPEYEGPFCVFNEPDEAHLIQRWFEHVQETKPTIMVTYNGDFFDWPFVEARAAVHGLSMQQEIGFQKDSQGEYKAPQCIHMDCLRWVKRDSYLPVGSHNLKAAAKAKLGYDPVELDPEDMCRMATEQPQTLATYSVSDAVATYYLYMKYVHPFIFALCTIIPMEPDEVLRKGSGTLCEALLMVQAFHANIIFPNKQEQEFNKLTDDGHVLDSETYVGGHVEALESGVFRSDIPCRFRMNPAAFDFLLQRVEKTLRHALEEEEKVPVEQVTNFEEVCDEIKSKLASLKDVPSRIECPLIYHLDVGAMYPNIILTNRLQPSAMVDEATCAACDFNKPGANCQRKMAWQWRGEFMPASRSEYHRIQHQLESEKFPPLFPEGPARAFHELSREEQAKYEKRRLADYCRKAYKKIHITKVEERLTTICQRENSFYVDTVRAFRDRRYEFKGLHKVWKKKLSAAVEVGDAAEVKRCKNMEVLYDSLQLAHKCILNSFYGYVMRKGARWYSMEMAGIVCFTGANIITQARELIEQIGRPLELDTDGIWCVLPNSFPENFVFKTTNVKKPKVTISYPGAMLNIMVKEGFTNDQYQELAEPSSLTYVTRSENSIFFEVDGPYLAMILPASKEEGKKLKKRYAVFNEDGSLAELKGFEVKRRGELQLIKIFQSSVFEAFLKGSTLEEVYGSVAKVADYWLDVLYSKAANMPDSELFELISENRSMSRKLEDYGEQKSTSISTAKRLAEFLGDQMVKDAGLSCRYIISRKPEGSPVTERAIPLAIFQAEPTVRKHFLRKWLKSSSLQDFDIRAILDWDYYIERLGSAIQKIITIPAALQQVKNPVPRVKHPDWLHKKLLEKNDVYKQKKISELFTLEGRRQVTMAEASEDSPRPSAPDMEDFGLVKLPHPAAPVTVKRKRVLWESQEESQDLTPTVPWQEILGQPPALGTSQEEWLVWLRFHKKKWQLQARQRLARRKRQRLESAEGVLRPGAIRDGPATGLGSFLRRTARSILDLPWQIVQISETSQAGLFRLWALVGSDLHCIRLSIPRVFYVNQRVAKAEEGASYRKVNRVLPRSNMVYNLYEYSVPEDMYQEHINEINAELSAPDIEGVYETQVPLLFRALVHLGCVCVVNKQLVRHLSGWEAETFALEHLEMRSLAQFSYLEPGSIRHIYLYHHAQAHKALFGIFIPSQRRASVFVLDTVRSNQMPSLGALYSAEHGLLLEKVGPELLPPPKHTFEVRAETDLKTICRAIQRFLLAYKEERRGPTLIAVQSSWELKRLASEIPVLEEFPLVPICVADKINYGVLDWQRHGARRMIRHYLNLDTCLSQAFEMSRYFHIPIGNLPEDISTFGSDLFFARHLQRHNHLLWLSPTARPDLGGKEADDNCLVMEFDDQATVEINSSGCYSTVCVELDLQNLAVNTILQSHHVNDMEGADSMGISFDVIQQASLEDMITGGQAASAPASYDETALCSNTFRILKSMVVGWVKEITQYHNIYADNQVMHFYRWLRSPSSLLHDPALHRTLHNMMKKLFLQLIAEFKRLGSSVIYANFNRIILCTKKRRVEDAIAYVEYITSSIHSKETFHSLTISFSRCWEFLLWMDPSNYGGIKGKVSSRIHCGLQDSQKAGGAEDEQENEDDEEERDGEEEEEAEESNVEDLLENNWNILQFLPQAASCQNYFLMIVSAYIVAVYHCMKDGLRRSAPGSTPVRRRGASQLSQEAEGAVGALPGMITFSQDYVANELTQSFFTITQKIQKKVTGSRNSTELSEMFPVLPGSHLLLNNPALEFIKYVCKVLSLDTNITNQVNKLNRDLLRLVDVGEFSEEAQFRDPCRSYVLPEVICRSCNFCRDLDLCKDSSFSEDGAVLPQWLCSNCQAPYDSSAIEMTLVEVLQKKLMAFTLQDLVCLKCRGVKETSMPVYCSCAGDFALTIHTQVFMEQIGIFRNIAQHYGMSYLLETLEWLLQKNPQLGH
endpointLabel: IC50 (µM)
Unit µM implied. Number only.

Value sought: IC50, system Human DNA polymerase ɛ (Homo sapiens, UniProt Q07864), item CC(C)=CCC/C(C)=C/CC1=C(C)C(=O)c2ccccc2C1=O [MK-2] . Result: 28.2

* * *

assayTarget: Human DNA polymerase λ (Homo sapiens, UniProt Q9UGP5)
Construct: made in house
Sequence (Q9UGP5 whole entry): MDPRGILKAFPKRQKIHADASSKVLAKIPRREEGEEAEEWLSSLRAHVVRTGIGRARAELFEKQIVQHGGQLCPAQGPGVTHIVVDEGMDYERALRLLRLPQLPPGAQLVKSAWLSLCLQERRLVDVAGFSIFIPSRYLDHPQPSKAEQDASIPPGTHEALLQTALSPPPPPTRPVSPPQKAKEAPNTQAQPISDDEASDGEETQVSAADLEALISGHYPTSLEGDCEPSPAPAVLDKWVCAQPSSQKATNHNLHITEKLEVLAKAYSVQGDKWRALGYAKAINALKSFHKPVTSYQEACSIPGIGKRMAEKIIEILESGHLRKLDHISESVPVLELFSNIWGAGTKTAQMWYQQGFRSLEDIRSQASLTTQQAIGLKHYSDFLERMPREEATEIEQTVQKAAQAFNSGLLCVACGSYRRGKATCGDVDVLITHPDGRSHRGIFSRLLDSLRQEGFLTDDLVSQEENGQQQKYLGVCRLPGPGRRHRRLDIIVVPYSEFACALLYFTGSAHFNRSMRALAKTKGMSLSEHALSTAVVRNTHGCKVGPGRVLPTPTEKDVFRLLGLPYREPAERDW
assayExplanation: DNA polymerase activity assay, human pol λ
Assay type: biochemical
condition: 50 μM of each compound; Figure 2
endpointLabel: Inhibitory effect on human pol λ activity

CC(C)=CCC/C(C)=C/CC/C(C)=C/CC1=C(C)C(=O)c2ccccc2C1=O
inhibited the activity
CC(C)=CCC1=C(C)C(=O)c2ccccc2C1=O
inhibited the activity
CC(C)=CCC/C(C)=C/CC1=C(C)C(=O)c2ccccc2C1=O
inhibited the activity

* * *

assayTarget: E. coli DNA polymerase I (Escherichia coli, UniProt P00582)
Sequence (P00582 324-928): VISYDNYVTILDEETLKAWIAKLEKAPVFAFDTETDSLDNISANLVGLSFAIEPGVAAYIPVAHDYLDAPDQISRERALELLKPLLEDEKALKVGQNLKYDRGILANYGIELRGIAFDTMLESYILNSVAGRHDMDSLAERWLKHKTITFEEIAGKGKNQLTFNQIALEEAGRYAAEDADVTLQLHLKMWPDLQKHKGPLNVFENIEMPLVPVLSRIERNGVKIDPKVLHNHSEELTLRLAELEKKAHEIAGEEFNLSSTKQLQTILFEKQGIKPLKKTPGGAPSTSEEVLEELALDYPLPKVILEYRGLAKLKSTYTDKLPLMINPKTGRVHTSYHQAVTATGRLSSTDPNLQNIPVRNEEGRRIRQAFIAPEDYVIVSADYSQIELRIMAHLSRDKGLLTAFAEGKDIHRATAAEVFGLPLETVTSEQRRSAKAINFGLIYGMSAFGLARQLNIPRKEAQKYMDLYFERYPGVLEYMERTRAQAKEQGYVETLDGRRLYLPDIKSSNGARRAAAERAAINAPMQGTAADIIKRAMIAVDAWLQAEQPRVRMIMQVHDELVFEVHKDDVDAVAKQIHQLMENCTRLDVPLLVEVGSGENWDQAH
endpointLabel: IC50

IC50 reported for this compound `CC(C)=CCC/C(C)=C/CC1=C(C)C(=O)c2ccccc2C1=O` : > 200 µM

* * *

assayTarget: Mouse DNA polymerase ι (Mus musculus)
Sequence (Q6R3M4 1-717): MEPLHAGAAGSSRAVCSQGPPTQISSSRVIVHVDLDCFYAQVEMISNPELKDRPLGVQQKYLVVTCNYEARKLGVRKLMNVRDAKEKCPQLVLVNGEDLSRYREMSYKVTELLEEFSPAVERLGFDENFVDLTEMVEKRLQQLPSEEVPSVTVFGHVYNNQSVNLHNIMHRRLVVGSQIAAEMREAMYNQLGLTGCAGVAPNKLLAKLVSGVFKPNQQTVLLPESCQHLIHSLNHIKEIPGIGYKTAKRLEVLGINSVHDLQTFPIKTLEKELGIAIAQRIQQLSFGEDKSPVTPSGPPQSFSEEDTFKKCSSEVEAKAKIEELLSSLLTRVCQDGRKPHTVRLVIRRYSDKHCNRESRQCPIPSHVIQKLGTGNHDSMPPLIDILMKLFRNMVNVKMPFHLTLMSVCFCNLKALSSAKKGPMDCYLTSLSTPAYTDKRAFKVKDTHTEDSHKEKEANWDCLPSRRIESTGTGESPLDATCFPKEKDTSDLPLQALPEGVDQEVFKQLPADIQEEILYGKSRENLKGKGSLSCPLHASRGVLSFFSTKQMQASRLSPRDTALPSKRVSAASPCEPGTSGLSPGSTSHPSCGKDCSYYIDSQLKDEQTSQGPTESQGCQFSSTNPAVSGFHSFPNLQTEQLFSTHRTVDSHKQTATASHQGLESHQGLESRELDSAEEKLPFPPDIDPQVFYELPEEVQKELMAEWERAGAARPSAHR
endpointLabel: IC50 (µM)
Unit µM implied. Number only.

Value sought: IC50, system Mouse DNA polymerase ι (Mus musculus), item `CC(C)=CCC/C(C)=C/CC1=C(C)C(=O)c2ccccc2C1=O` . Result: 39
